Reported melting point values are given for each entry in this list.

{"compound": "CCOC(=O)C1=C(C)OC(N)=C(C#N)C1c1cccc(-c2ccccc2)c1 (stereo not shown)", "melting point": "186 to 190 °C"}
{"compound": "COc1ccc(C2C(C#N)=C(N)OC(C)=C2C(=O)OCc2ccccc2)cc1 (stereo not shown)", "melting point": "170 to 172 °C"}
{"compound": "Cc1[nH]nc2c1C(c1cccc(O)c1Cl)C(C#N)=C(N)O2 (stereo not shown)", "melting point": "240 to 242 °C"}
{"compound": "CC1=C(C(=O)OCc2ccccc2)C(c2ccc(Cl)cc2Cl)C(C#N)=C(N)O1 (stereo not shown)", "melting point": "146 to 148 °C"}

Cited source for all entries: paper PMC9317316
